These data points were gathered from patent US4663068A.

METHOD_SUMMARY: Bleach Stability Test (triangle test after storage with perborate and TAED)
Assay type: physicochemical
CONDITION_NOTES: number of 20 assessors correctly choosing odd one out; 0.2% material in powder with perborate and TAED, 45° C. one week; up to 9 = bleach-stable, 10 or more = unstable
The threshold is inclusive: BST panel score of exactly 7 counts as true (1); values below receive false (0).

INSERT INTO assay_data (compound, class_name) VALUES
  ('CCCCCC1CCC(=O)O1 (stereo not shown) [Nonanolide-1,4]', 'false (0)');

Consider the additional compound presented here.
Q) API: above_or_equal(metric=BST panel score, cutoff=7) for item O=c1ccc2ccccc2o1
A) true (1)

====

METHOD_SUMMARY: Morpholine Test (depression of partial vapour pressure of morpholine, Raoult Variance Ratio)
CONDITION_NOTES: morpholine 0.25 g + material 1 g, 37° C., headspace GC
Measured RVR value (Raoult Variance Ratio) accompanies every entry in the list below.
Give your answer as a number; write no unit.

Study these solved cases before continuing.
INSERT INTO results (compound, reported_value) VALUES
  ('CC(=O)OC1CCC(C(C)(C)C)CC1 (stereo not drawn) [p-t-Butyl cyclohexyl acetate]', 0.98),
  ('CCCCCCC(CCOC(C)=O)OC(C)=O (stereo not drawn) [Nonanediol-1,3-diacetate]', 1.17),
  ('CC(=O)OC1CCCCC1C(C)(C)C (stereo not drawn) [o-t-Butylcyclohexyl acetate]', 1.08),
  ('COC(=O)c1ccccc1N [Methyl anthranilate]', 1.20),
  ('CC(C)CCOC(=O)c1ccccc1O [iso-Amyl salicylate]', 1.24);

// next entry
Q) Kindly indicate its recorded RVR value (Raoult Variance Ratio). Item: CC(=O)c1ccc2ccccc2c1 [β-Methyl naphthyl ketone]
A) 0.96

====

METHOD_SUMMARY: Bleach Stability Test (triangle test after storage with perborate and TAED)
Type: physicochemical
CONDITION_NOTES: number of 20 assessors correctly choosing odd one out; 0.2% material in powder with perborate and TAED, 45° C. one week; up to 9 = bleach-stable, 10 or more = unstable
Procedure: (i) dosing a perfume material into the standard unperfumed washing powder and incubating the dosed powder at 20° C. in a sealed container for seven days; […] The stability of perfume materials to the presence of a bleaching composition is assessed according to a standard test which involves the exposure of these individual perfume materials to a mixture of sodium perborate tetrahydrate and TAED in a detergent fabric washing powder under standard conditions of storage. […]
RECORDED_METRIC: BST panel score
Give your answer as a number; write no unit.

INSERT INTO results (compound, reported_value) VALUES
  ('CCCCCCC(CCOC(C)=O)OC(C)=O (centres unmarked) [Nonanediol-1,3-diacetate]', 8),
  ('CC(C)Cc1ccc2ncccc2c1', 5),
  ('CC(=O)C(C)=CC1C(C)=CCCC1(C)C (centres unmarked)', 7),
  ('CCC(C)(C)C1CCC(=O)CC1', 8),
  ('CC(=O)OC1CCC(C(C)(C)C)CC1 (centres unmarked) [p-t-Butyl cyclohexyl acetate]', 10),
  ('CC(C=O)Cc1ccc(C(C)(C)C)cc1 (centres unmarked)', 13);

Q) Kindly indicate its recorded BST panel score. Item: CC(=O)c1ccc2ccccc2c1
A) 3

Q) Kindly indicate its recorded BST panel score. Item: CCCCCCCC1CCCC1=O (centres unmarked)
A) 7

Q) Kindly indicate its recorded BST panel score. Item: CCCCCCOC(=O)c1ccccc1O [Hexyl salicylate]
A) 5

Q) Kindly indicate its recorded BST panel score. Item: Cc1ccc(C(C)C)cc1O
A) 6

Q) Kindly indicate its recorded BST panel score. Item: CC(C)CCOC(=O)c1ccccc1O [iso-Amyl salicylate]
A) 9

Q) Kindly indicate its recorded BST panel score. Item: CC1COCc2cc3c(cc21)C(C)(C)C(C)C3(C)C (centres unmarked)
A) 5

Q) Kindly indicate its recorded BST panel score. Item: CCOC(=O)c1ccccc1C(=O)OCC [Diethyl phthalate]
A) 4

Q) Kindly indicate its recorded BST panel score. Item: CCOC(=O)c1ccccc1O [Ethyl salicylate]
A) 7

Q) Kindly indicate its recorded BST panel score. Item: OC/C=C/c1ccccc1
A) 9

Q) Kindly indicate its recorded BST panel score. Item: CCOc1cc(C=O)ccc1O
A) 12

Q) Kindly indicate its recorded BST panel score. Item: COC(=O)c1ccccc1N [Methyl anthranilate]
A) 6

Q) Kindly indicate its recorded BST panel score. Item: O=C(Cc1ccccc1)OCCc1ccccc1 [Phenylethyl phenyl acetate]
A) 7

Q) Kindly indicate its recorded BST panel score. Item: O=C(OCc1ccccc1)c1ccccc1O [Benzyl salicylate]
A) 17

====

METHOD_SUMMARY: Morpholine Test (depression of partial vapour pressure of morpholine, Raoult Variance Ratio)
CONDITION_NOTES: morpholine 0.25 g + material 1 g, 37° C., headspace GC
Measured RVR value (Raoult Variance Ratio) accompanies every entry in the list below.

INSERT INTO measurements (molecule, recorded_metric, reported_value) VALUES
  ('OCCc1ccccc1', 'RVR value (Raoult Variance Ratio)', 1.24),
  ('CCCCCCCC1CCCC1=O (stereo not drawn)', 'RVR value (Raoult Variance Ratio)', 1.05),
  ('CCOc1cc(C=O)ccc1O', 'RVR value (Raoult Variance Ratio)', 1.43);

Q) Kindly indicate its recorded RVR value (Raoult Variance Ratio). Item: OC/C=C/c1ccccc1
A) 1.28

Q) Kindly indicate its recorded RVR value (Raoult Variance Ratio). Item: CC(C)Cc1ccc2ncccc2c1
A) 1.10

Q) Kindly indicate its recorded RVR value (Raoult Variance Ratio). Item: O=C(Cc1ccccc1)OCCc1ccccc1 [Phenylethyl phenyl acetate]
A) 1.22

Q) Kindly indicate its recorded RVR value (Raoult Variance Ratio). Item: CC1(C)CCCC2(C)C1CCC1(C)OCCC12 (stereo not drawn)
A) 1.30

Q) Kindly indicate its recorded RVR value (Raoult Variance Ratio). Item: CCCCCC1CCC(=O)O1 (stereo not drawn) [Nonanolide-1,4]
A) 0.87

Q) Kindly indicate its recorded RVR value (Raoult Variance Ratio). Item: Cc1ccc(C(C)C)cc1O
A) 1.43

Q) Kindly indicate its recorded RVR value (Raoult Variance Ratio). Item: O=c1ccc2ccccc2o1
A) 1.22

Q) Kindly indicate its recorded RVR value (Raoult Variance Ratio). Item: CCC(C)(C)C1CCC(=O)CC1
A) 1.10

====

Measured BST panel score accompanies every entry in the list below.
METHOD_SUMMARY: Bleach Stability Test (triangle test after storage with perborate and TAED)
Assay type: physicochemical
CONDITION_NOTES: number of 20 assessors correctly choosing odd one out; 0.2% material in powder with perborate and TAED, 45° C. one week; up to 9 = bleach-stable, 10 or more = unstable

Study these solved cases before continuing.
INSERT INTO measurements (molecule, reported_value) VALUES
  ('C/C=C\c1ccc(O)c(OC)c1 [iso-Eugenol]', 4),
  ('CC1(C)CCCC2(C)C1CCC1(C)OCCC12 (stereo not shown)', 5),
  ('CC(=O)OC1CCCCC1C(C)(C)C (stereo not shown) [o-t-Butylcyclohexyl acetate]', 8);

Q) Kindly indicate its recorded BST panel score. Item: OCCc1ccccc1 [Phenylethyl alcohol]
A) 10

====

METHOD_SUMMARY: Morpholine Test (depression of partial vapour pressure of morpholine, Raoult Variance Ratio)
CONDITION_NOTES: morpholine 0.25 g + material 1 g, 37° C., headspace GC
RECORDED_METRIC: RVR value (Raoult Variance Ratio)
Give your answer as a number; write no unit.

Study these solved cases before continuing.
INSERT INTO results (compound, reported_value) VALUES
  ('CCOC(=O)c1ccccc1C(=O)OCC [Diethyl phthalate]', 1.20),
  ('C/C=C\c1ccc(O)c(OC)c1 [iso-Eugenol]', 1.48),
  ('O=C(OCc1ccccc1)c1ccccc1O [Benzyl salicylate]', 1.58);

// next entry
Q) Kindly indicate its recorded RVR value (Raoult Variance Ratio). Item: CCOC(=O)c1ccccc1O [Ethyl salicylate]
A) 1.19
